Assay: Oral PK in rats, single oral dose, plasma concentration by LC-MS/MS
Assay type: in vivo, Sprague Dawley (SD) rats
Conditions: SD rats, single oral gavage 5 mg/kg, sampling up to 24 hours, plasma, n=3
Outcome measure: AUC0-t (ng·h/mL)

// below: answered compounds
| Smiles str | Unit tag | Obs value |
| --- | --- | --- |
| Cn1cc(Nc2nccc(-c3ccc(NS(=O)(=O)Cc4cccc(F)c4)cc3)n2)cn1 | ng·h/mL | 381 |
| CCNC(=O)c1ccc(Nc2nccc(-c3ccc(NC(=O)[C@@H]4CC4(F)F)cc3)n2)cc1C | ng·h/mL | 30.7 |
| Cn1cc(Nc2nccc(-c3ccc(N(COC(=O)C(C)(C)C)C(=O)[C@@H]4CC4(F)F)nc3)n2)cn1 | ng·h/mL | 1670 |

[A] CCNC(=O)c1ccc(Nc2nccc(-c3ccc(NC(=O)[C@@H]4CC4(F)F)cc3)n2)cc1
[B] Cn1cc(Nc2nccc(-c3ccc(NS(=O)(=O)Cc4cccc(C#N)c4)cc3)n2)cn1
Input: Of the two listed items, A and B , which carries the larger AUC0-t figure? Kindly state the label of the option you pick.
Output: A

* * *

Assay: Oral PK in rats, single oral dose, plasma concentration by LC-MS/MS
Type: in vivo, Sprague Dawley (SD) rats
Details: Sprague-Dawley, rat; SD rats, single oral gavage 5 mg/kg, 1 mg/mL solution in DMA:30% Solutol HS 15:Saline 10:10:80, plasma, n=3; read-out: Cmax
Outcome measure: Cmax (ng/mL)

| Molecule | Cmax / ng/mL |
| --- | --- |
| CCNC(=O)c1ccc(Nc2nccc(-c3ccc(N(COC(=O)C(C)(C)C)C(=O)C4CC4(F)F)cc3)n2)cc1C (centres unmarked) [Example 4] | 635 |

[I] Cn1cc(Nc2nccc(-c3ccc(N(COC(=O)C(C)(C)C)S(=O)(=O)Cc4cccc(C#N)c4)cc3)n2)cn1 [Example 2]
[II] Cn1cc(Nc2nccc(-c3ccc(N(COC(=O)C(C)(C)C)S(=O)(=O)Cc4cccc(F)c4)cc3)n2)cn1 [Example 3]
[III] Cn1cc(Nc2nccc(-c3ccc(NC(=O)[C@@H]4CC4(F)F)nc3)n2)cn1 [Comparative Example 1]
Input: Sort the 3 molecules by Cmax; largest first, smallest last. List labels; respect the requested ordering.
Output: II, I, III

* * *

Experiment: Oral PK in rats, single oral dose, plasma concentration by LC-MS/MS
Format: in vivo, Sprague Dawley (SD) rats
Settings: Sprague-Dawley, rat; SD rats, single oral gavage 5 mg/kg, sampling up to 24 hours, plasma, n=3; read-out: AUC0-t
Outcome measure: AUC0-t (ng·h/mL)

Reference set, count: 3
| Compound | AUC0-t / ng·h/mL |
| --- | --- |
| CCNC(=O)c1ccc(Nc2nccc(-c3ccc(N(COC(=O)C(C)(C)C)C(=O)C4CC4(F)F)cc3)n2)cc1C (centres unmarked) | 3090 |
| CCNC(=O)c1ccc(Nc2nccc(-c3ccc(N(COC(=O)C(C)(C)C)C(=O)C4CC4(F)F)cc3)n2)cc1 (centres unmarked) | 2710 |
| Cn1cc(Nc2nccc(-c3ccc(N(COC(=O)C(C)(C)C)S(=O)(=O)Cc4cccc(F)c4)cc3)n2)cn1 | 2890 |

[a] Cn1cc(Nc2nccc(-c3ccc(N(COC(=O)C(C)(C)C)S(=O)(=O)Cc4cccc(C#N)c4)cc3)n2)cn1
[b] Cn1cc(Nc2nccc(-c3ccc(NC(=O)[C@@H]4CC4(F)F)nc3)n2)cn1
Input: Of a and b , which carries the smaller reported AUC0-t figure? Give the chosen item's label as your response.
Output: b

This collection of values is drawn from patent US20240308984A1.
